# assay.summary: circular dichroism
# condition: water (methods paragraph says 0.1 M phosphate; tables say water); pH ns; 20 °C; 0.5 mM
Where a SMILES comes first, the peptide text is derived from it. Bridges are numbered along the chain shown (N, C = ends).
value.type: helicity (MRE222)

>>> readout_value("CC[C@H](C)[C@@H]1NC(=O)[C@H](CCCCN)NC(=O)[C@@H](NC(=O)[C@H](CCCCN)NC(=O)[C@H](CC(C)C)NC(=O)[C@H](CC(N)=O)NC(C)=O)CCC(=O)NCCCC[C@@H](C(=O)N[C@H](C(=O)N[C@H](C(=O)N[C@@H](CCCCN)C(=O)N[C@@H](CC(C)C)C(=O)N[C@@H](CCCCN)C(=O)N[C@@H](CC(=O)O)C(=O)N[C@@H](CCC(=O)O)C(N)=O)C(C)C)C(C)C)NC(=O)[C@H](CCCCN)NC1=O (Ac-NLKEKIKKVVKLKDE-NH2; lactam 4-8)")
-2460
>>> readout_value("CC(=O)N[C@H](C(=O)N[C@@H](CO)C(=O)N[C@@H](CCCCN)C(=O)N[C@@H](CC(C)C)C(=O)N[C@@H](CCCNC(=N)N)C(=O)N[C@H]1CCCCNC(=O)CC[C@@H](C(=O)N[C@@H](CCCNC(=N)N)C(=O)N[C@@H](CCCCN)C(=O)N[C@@H](CCC(N)=O)C(=O)N[C@@H](CC(N)=O)C(N)=O)NC(=O)[C@H](C(C)C)NC(=O)[C@H](CC(C)C)NC(=O)[C@H](CCC(N)=O)NC1=O)C(C)C (Ac-VSKLRKQLVERKQN-NH2; lactam 6-10)")
-1980
>>> readout_value("CC(=O)N[C@@H](CC(N)=O)C(=O)N[C@@H](CC(C)C)C(=O)N[C@@H](CCCCN)C(=O)N[C@@H](CCC(N)=O)C(=O)N[C@@H](CCCCN)C(=O)N[C@H]1CCC(=O)NCCCC[C@@H](C(=O)N[C@@H](CCCCN)C(=O)N[C@@H](CC(C)C)C(=O)N[C@@H](CCCCN)C(=O)N[C@@H](CC(=O)O)C(=O)N[C@@H](CCC(=O)O)C(N)=O)NC(=O)[C@H](C(C)C)NC(=O)[C@H](Cc2c[nH]cn2)NC(=O)[C@H](CCCCN)NC1=O (Ac-NLKQKEKHVKKLKDE-NH2; lactam 6-10)")
-2610
>>> readout_value("CC[C@H](C)[C@H](NC(=O)[C@H](CCCCN)NC(=O)[C@H](CCC(N)=O)NC(=O)[C@H](CCCCN)NC(=O)[C@H](CC(C)C)NC(=O)[C@H](CC(N)=O)NC(C)=O)C(=O)N[C@@H](CCCCN)C(=O)N[C@H]1CCC(=O)NCCCC[C@@H](C(=O)N[C@@H](CCCCN)C(=O)N[C@@H](CC(=O)O)C(=O)N[C@@H](CCC(=O)O)C(N)=O)NC(=O)[C@H](CCCCN)NC(=O)[C@H](C(C)C)NC(=O)[C@H](C(C)C)NC1=O (Ac-NLKQKIKEVVKKKDE-NH2; lactam 8-12)")
-1800
>>> readout_value("CC(=O)N[C@H](C(=O)N[C@@H](CO)C(=O)N[C@@H](CCCCN)C(=O)N[C@@H](CC(C)C)C(=O)N[C@@H](CCCNC(=N)N)C(=O)N[C@H]1CCC(=O)NCCCC[C@@H](C(=O)N[C@@H](CCCNC(=N)N)C(=O)N[C@@H](CCCCN)C(=O)N[C@@H](CCC(N)=O)C(=O)N[C@@H](CC(N)=O)C(N)=O)NC(=O)[C@H](C(C)C)NC(=O)[C@H](CC(C)C)NC(=O)[C@H](CCC(N)=O)NC1=O)C(C)C (Ac-VSKLREQLVKRKQN-NH2; lactam 6-10)")
-4850
